Protocol details: The drug is tested on Anaerotruncus colihominis strain: DSM17241 for biotransformation. The drug concentrations were measured before and after a 12-h incubation by liquid-chromatography-coupled mass spectrometry (LC–MS)
Condition details: 2 µM
Measured metric: Bacterial Biotransformation

Ask: Specify Bacterial Biotransformation for "OCCOCCN1CCN(C2=Nc3ccccc3Sc3ccccc32)CC1" and stop.
Result: Compound NOT metabolized

Ask: Indicate its recorded Bacterial Biotransformation; the compound in question is NS(=O)(=O)c1cc2c(cc1Cl)N=C(CSCc1ccccc1)NS2(=O)=O [BENZTHIAZIDE]
Result: Compound NOT metabolized

Ask: Fill in Bacterial Biotransformation for record "O=c1[nH]c2ccccc2n1CCCN1CCC(n2c(=O)[nH]c3cc(Cl)ccc32)CC1"
Result: Compound NOT metabolized

Ask: Given the compound CC(C)NCC(O)c1ccc(NS(C)(=O)=O)cc1 (centres undefined) , write its reported Bacterial Biotransformation.
Result: Compound NOT metabolized

Ask: For the compound "Cc1ccc(NC(=O)c2ccc(CN3CCN(C)CC3)cc2)cc1Nc1nccc(-c2cccnc2)n1" , report Bacterial Biotransformation.
Result: Compound NOT metabolized

I need Bacterial Biotransformation for every entry listed below, if you could help.
1. CCc1oc2ccccc2c1C(=O)c1cc(Br)c(O)c(Br)c1
2. CC(C)(C)NCC(O)COc1cccc2c1CC(O)C(O)C2 (centres undefined)
3. COc1ccc2c(c1OC)C(=O)O[C@@H]2[C@H]1c2c(cc3c(c2OC)OCO3)CCN1C
4. COc1cc2nc(N3CCN(C(=O)C4CCCO4)CC3)nc(N)c2cc1OC (centres undefined)

Result:
1. Compound NOT metabolized
2. Compound NOT metabolized
3. Compound metabolized
4. Compound NOT metabolized
